- Target Or Test System: Plasmepsin V (Plasmodium falciparum (isolate 3D7))
- Measurement Description: Inhibition of Plasmodium falciparum plasmepsin V assessed as cleavage of wtKAHRP fluorogenic substrate at 1 uM
Square brackets hold non-standard residues; d marks the D form. Peptide text beside a SMILES is read from it. * marks the point of attachment. Sta = CC(C)C[C@H](N)[C@@H](O)CC(=O)O; Pyrrolidide = C1CCN(*)C1; Cbz = O=C(OCc1ccccc1)*
Experimental Endpoint: inhibition (%)

(I) CC(C)C[C@H](NC(=O)[C@H](C)NC(=O)[C@H](CCCNC(=N)N)NC(=O)OCc1ccccc1)[C@@H](O)CC(=O)N1CCCC1 (Cbz-Arg-Ala-[Sta]-Pyrrolidide)
(II) CC(C)C[C@H](NC(=O)[C@H](C)NC(=O)[C@H](CCCNC(=N)N)NS(=O)(=O)Cc1ccccc1)[C@@H](O)CC(=O)NCCc1ccccc1
Field: entry with larger inhibition (options I / II ). Lab note: record the label of whichever item you select. II

Value source: ChEMBL document CHEMBL3352063
